Answer each item with its documented IC50.
Biological target: BACE1 (Homo sapiens, UniProt P56817)
Sequence (P56817 46-501, species assumed): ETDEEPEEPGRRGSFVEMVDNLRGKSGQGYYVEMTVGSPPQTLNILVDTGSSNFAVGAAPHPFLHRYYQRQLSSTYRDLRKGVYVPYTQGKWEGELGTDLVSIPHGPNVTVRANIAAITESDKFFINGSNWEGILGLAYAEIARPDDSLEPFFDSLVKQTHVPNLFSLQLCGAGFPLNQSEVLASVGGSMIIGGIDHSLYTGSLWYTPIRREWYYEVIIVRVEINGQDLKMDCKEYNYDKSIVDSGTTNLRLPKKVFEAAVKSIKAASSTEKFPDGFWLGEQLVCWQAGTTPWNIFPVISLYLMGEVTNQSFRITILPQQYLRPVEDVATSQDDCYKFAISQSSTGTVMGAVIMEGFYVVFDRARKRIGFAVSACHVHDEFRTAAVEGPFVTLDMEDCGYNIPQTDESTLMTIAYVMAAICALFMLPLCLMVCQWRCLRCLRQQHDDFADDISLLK
Assay: In Vitro BACE Cell-based Assay (HEK cell assay): Aβ40 in conditioned medium of cells stably expressing Amyloid Precursor Protein, sandwich ELISA
Conditions: Table II; Aβ40, 24 h incubation; read-out: HEK cell assay
Procedure: In Vitro BACE Cell-based Assay The cell-based assay measures inhibition or reduction of Aβ40 in conditioned medium of test compound treated cells expressing amyloid precursor protein. Cells stably expressing Amyloid Precursor Protein (APP) were plated at a density of 40K cells/well in 96 well plates (Costar). […] After 24 h of incubation with the test compounds the supernatant conditioned media was collected and the Aβ 40 levels were determined using a sandwich ELISA. […]

CC(C)(C)COc1ccc2c(c1)[C@]1(COC(N)=N1)c1cc(-c3cc(Cl)ccc3F)ccc1O2: 100 to 1000 nM

// input: 2 compounds below; output: IC50 for each
1. CC(C)(C)COc1ccc2c(c1)[C@]1(COC(N)=N1)c1cc(-c3ccoc3)ccc1O2
2. CC(C)(C)CCOc1ccc2c(c1)[C@]1(COC(N)=N1)c1cc(-c3cncnc3)ccc1O2

["1000 to 5000 nM", "100 to 1000 nM"]

====

target: UniProt:P56817; assay: In Vitro Enzymatic BACE FRET (Fluorescence Resonance Energy Transfer) Assay; assay type: biochemical; details: Table 1; read-out: BACE1 FRET assay
pIC50: −log10 of the molar value.
Answer each item with its documented pIC50.

// input: 5 compounds below; output: pIC50 for each
1. CCCOc1ccc2c(c1)[C@]1(COC(N)=N1)c1cc(-c3cncnc3)ccc1O2
2. Cc1cccc(-c2ccc3c(c2)C2(COC(N)=N2)c2ccc(C)cc2O3)c1 (centres unmarked)
3. CCCOc1ccc2c(c1)C1(COC(N)=N1)c1cc(-c3cncnc3)ccc1O2 (centres unmarked)
4. COc1ccc(F)c(-c2ccc3c(c2)C2(COC(N)=N2)c2ccc(C)cc2O3)c1 (centres unmarked)
5. COc1ccc2c(c1)C1(COC(N)=N1)c1cc(-c3cccnc3Cl)ccc1O2 (centres unmarked)

["> 7.00", "< 5.30", "> 7.00", "5.30 to 6.00", "5.30 to 6.00"]

// input: 3 compounds below; output: pIC50 for each
1. COc1ccc2c(c1)C1(COC(N)=N1)c1cc(-c3ccccc3Cl)ccc1O2 (centres unmarked)
2. Cc1ccc2c(c1)Oc1ccc(-c3ccccc3Cl)cc1C21COC(N)=N1 (centres unmarked)
3. COc1ccc2c(c1)C1(COC(N)=N1)c1cc(Br)ccc1O2 (centres unmarked)

1. < 5.30
2. < 5.30
3. < 5.30

====

molecular target: BACE1 (Homo sapiens, UniProt P56817); test: In Vitro BACE Cell-based Assay (HEK cell assay): Aβ40 in conditioned medium of cells stably expressing Amyloid Precursor Protein, sandwich ELISA; conditions: HEK cell-based assay, Aβ40 in conditioned medium, IC50 class symbols; read-out: HEK cell assay
pIC50: −log10 of the molar value.
assay_endpoint: pIC50

See these solved cases before continuing.
NC1=N[C@@]2(CO1)c1cc(-c3cccc(F)c3)ccc1Oc1cnc(-c3cccc(F)c3)cc12: 6.00 to 7.00
COCC[C@@H]1CN(c2ccc3c(c2)[C@]2(COC(N)=N2)c2cc(-c4cccnc4)ccc2O3)CCO1: 6.00 to 7.00

// input: 4 compounds below; output: pIC50 for each
1. NC1=N[C@@]2(CO1)c1cc(-c3cncc(F)c3)ccc1Oc1cnc(C3CCOCC3)cc12
2. Cc1cncc(-c2ccc3c(c2)[C@@]2(COC(N)=N2)c2cc(Cl)ncc2O3)c1
3. Cn1cc(-c2cc3c(cn2)Oc2ccc(-c4cccc(Cl)c4)cc2[C@@]32COC(N)=N2)cn1
4. NC1=N[C@@]2(CO1)c1cc(-c3cccnc3N3CCOCC3)ccc1Oc1cnc(N3CCOCC3)cc12

1: > 7.00; 2: 5.30 to 6.00; 3: > 7.00; 4: 6.00 to 7.00

So, "NC1=N[C@@]2(CO1)c1cc(-c3cccnc3F)ccc1Oc1c(F)cc(C3CCOCC3)cc12" ? Its pIC50 was > 7.00
